test: in vitro; assay type: in vitro ADME; set-up: dose or concentration left out as unconfirmed; settings: simulated intestinal fluid (SIF) with pancreatin, pH 6.8, 37° C., § matrix is 100 fold dilution of standard SIF concentration, read-out: SIF t½ (converted)
Bridge positions count the residues as written; N and C are the ends. Square brackets hold non-standard residues; d marks the D form. Peptide text beside a SMILES is read from it. Trp(7-Me) = Cc1cccc2c(C[C@H](N)C(=O)O)c[nH]c12; 2Nal = N[C@@H](Cc1ccc2ccccc2c1)C(=O)O; AEF = NCCOc1ccc(C[C@H](N)C(=O)O)cc1; Cit = NC(=O)NCCC[C@H](N)C(=O)O; Pen = CC(C)(S)[C@H](N)C(=O)O; αMeK = C[C@](N)(CCCCN)C(=O)O
quantity.kind: half-life (h)
Give bare numbers, in h.

Solved entries (count: 3):
compound: CC(=O)NCCCC[C@@H]1NC(=O)[C@H](Cc2c[nH]c3c(C)cccc23)NC(=O)[C@H]([C@@H](C)O)NC(=O)[C@H](CC(N)=O)NC(=O)[C@@H](NC(C)=O)C(C)(C)SSC(C)(C)[C@@H](C(=O)N[C@@H](Cc2ccc3ccccc3c2)C(=O)N[C@@H](Cc2ccc3ccccc3c2)C(=O)N[C@@](C)(CCCCN)C(=O)N[C@@H](CCCCNC(C)=O)C(=O)N[C@@H](CC(N)=O)C(=O)N[C@H](CC(C)C)C(N)=O)NC1=O [compound 289] (Ac-[Pen]NT[Trp(7-Me)]K(Ac)[Pen][2Nal][2Nal][αMeK]K(Ac)N[dL]-NH2; disulfide 1-6)
half-life [h]: 12

compound: CC[C@H](C)[C@H](NC(=O)[C@H](CC(N)=O)NC(=O)[C@H](CCCCNC(C)=O)NC(=O)[C@](C)(CCCCN)NC(=O)[C@H](Cc1ccc2ccccc2c1)NC(=O)[C@H](Cc1ccc(OCCN)cc1)NC(=O)[C@H]1NC(=O)[C@H](CCCCNC(C)=O)NC(=O)[C@H](Cc2c[nH]c3c(C)cccc23)NC(=O)[C@H]([C@@H](C)O)NC(=O)[C@H](CC(N)=O)NC(=O)[C@@H](NC(C)=O)C(C)(C)SSC1(C)C)C(N)=O
half-life [h]: 19

compound: CC(=O)NCCCC[C@@H]1NC(=O)[C@H](Cc2c[nH]c3c(C)cccc23)NC(=O)[C@H]([C@@H](C)O)NC(=O)[C@H](CC(N)=O)NC(=O)[C@@H](NC(C)=O)C(C)(C)SSC(C)(C)[C@@H](C(=O)N[C@@H](Cc2ccc(OCCN)cc2)C(=O)N[C@@H](Cc2ccc3ccccc3c2)C(=O)N[C@@](C)(CCCCN)C(=O)N[C@@H](CCC(=O)O)C(=O)NCCC(=O)NCCC(N)=O)NC1=O
half-life [h]: 8

Now look at this entry.
// query Name the reported half-life value associated with the compound CC(=O)NCCCC[C@H](NC(=O)[C@](C)(CCCCN)NC(=O)[C@H](Cc1ccc2ccccc2c1)NC(=O)[C@H](Cc1ccc(OCCN)cc1)NC(=O)[C@H]1NC(=O)[C@H](CCCNC(N)=O)NC(=O)[C@H](Cc2c[nH]c3c(C)cccc23)NC(=O)[C@H]([C@@H](C)O)NC(=O)[C@H](CC(N)=O)NC(=O)[C@@H](NC(C)=O)C(C)(C)SSC1(C)C)C(=O)N[C@@H](CC(N)=O)C(=O)N[C@@H](C(N)=O)[C@H](C)O [compound 263] (Ac-[Pen]NT[Trp(7-Me)][Cit][Pen][AEF][2Nal][αMeK]K(Ac)N[dT]-NH2; disulfide 1-6)
// result 14
